Test system: SN12C renal
Experiment: NCI-60 one-dose screen, 48 h (100 = growth as untreated, 0 = no growth, -100 = all killed)
Details: 10 µM unless noted
Experimental: Growth inhibition of the SN12C human tumor cell line is measured as a screen for anti-cancer activity. Cells are grown in 96 well plates and exposed to the test compound for 48 hours. Compounds are tested at a single concentration, which is 10^-5 M for most compounds. The reported endpoint is percent growth (GI% or GIPRCNT), where numbers from 0 - 100% represent growth inhibition, and numbers from -100% - 0 represent cell death. For example, a value of 40 represents 60% growth inhibition. […]
This is part of a sample that, as a whole, favours compounds with a hit. Of some 83,000 tested, about 20% had one in any assay.
Provide the reported growth of each item.
Write down the numeric answer in % and omit the unit.

Look up growth: `COc1cccc2c1[C@H](OC)[C@]13O[C@@]1(C2=O)[C@H](O)[C@H](C)[C@@](O)(C(=O)[C@@H]1O[C@H]1C)[C@@H]3O`
-8.82

Param item: `CC(=C(c1ccc(OCCCN(C)C)cc1)c1ccc(OCCCN(C)C)cc1)c1ccc(Cl)cc1`
85.5

And for `O=c1c2cc(-c3ccc(F)cc3F)ccc2n(O)c(=O)n1-c1cccc(C(F)(F)F)c1` ?
0.105

And the next one, `N#Cc1cnc2ccc(-c3cnc4n[nH]nc4c3)cc2c1N1CCc2cc(F)c(Cl)cc21` ?
14.8

Also `N#Cc1nc(-c2ccccc2)oc1N1CCC(C2(C(F)(F)F)N=N2)CC1` ?
119

Now give it for CCOP(=O)(OCC)OC[C@]12CCC(C)(C)CC1C1=CC[C@@H]3[C@@]4(C)CCCNC(C)(C)[C@@H]4CC[C@@]3(C)[C@]1(C)CC2 (stereo partly specified) too.
80.8

Queued: `COC(=O)N1CCN(CCNCc2ccc(NC(=O)c3ccc(C)c(C#Cc4cnc5cccnn45)c3)cc2C(F)(F)F)CC1`
39.8

Now the compound `O=C(CSc1nnc(-c2ccc(Cl)cc2)n1-c1ccccc1)Nc1ccccc1Cl`
29.4

Another: `CN(C)c1ccc(/C=N/Nc2nc(N/N=C/c3ccc(N(C)C)cc3)nc(N3CCCCC3)n2)cc1`
50.4

Moving on to the next compound: `O=C(CSc1nc2ccccc2c(=O)n1CCc1ccccc1)Nc1ccc(S(=O)(=O)Nc2ccc(Cl)nn2)cc1`
94.9

Queued: `COc1ccc(/C=N/NC(=O)CSc2nc(-c3cnccn3)cc(-c3cccs3)c2C#N)cc1`
64

Also need `O=C(CSc1nc2ccccc2c(=O)n1-c1ccccc1)Nc1ccc(S(=O)(=O)Nc2nccs2)cc1` , thanks.
63.8

How about `Cn1c(SCC(=O)c2ccco2)nc2ccccc2c1=O` ?
105

Please do the same for `O=C(Nc1cccc(C(F)(F)F)c1)N1CCN(c2cc(-c3cn(-c4ccccc4)nc3-c3cccc(O)c3)ccn2)CC1` as well.
49

Record: `CC1=C(C)C(=O)C(Nc2ccc(C)cc2)=C(Br)C1=O`
98.9

Also need `COc1ccc(NC2=C(Br)C(=O)C(C)=C(C)C2=O)cc1OC` , thanks.
100

Repeat for the following compound: `O=C(/C=C/c1cccc(F)c1)c1cccc(OCCCCOc2cccc(C(=O)/C=C/c3cccc(F)c3)c2)c1`
95.2

Same lookup for `C[C@@H]1OCC2(CCN(c3cnc(C(=O)Nc4cc(F)cc5cccnc45)cn3)CC2)[C@@H]1N` , please.
59.6

Also `CCNCCOc1ccc(/C(=C(/CC)c2ccc(Cl)cc2)c2ccc(OCCCN(C)C)cc2)cc1` ?
-85.6

// next record `N#Cc1cccc(-c2cc(-c3ccc4c(c3)OCCO4)[nH]n2)c1`
49.2

Same question, CCOP(=O)(OCC)OC[C@]12CC[C@@H](C)[C@H](C)C1C1=CC[C@@H]3[C@@]4(C)CCCNC(C)(C)[C@@H]4CC[C@@]3(C)[C@]1(C)CC2 (stereo partly specified) this time
40.1

Same again, this time with `COC(=O)c1cccc(NC2=C(Cl)C(=O)c3nc(C)ccc3C2=O)c1`
93.1

Try the compound `CNC(=O)c1cc(Oc2ccc3c(c2)sc2nc(-c4ccc(N(C)C)cc4)cn23)ccn1`
43

Now this one: `CCCCCCNC(=O)Oc1ccc(/C(=C(/C)c2ccc(OC)cc2)c2ccc(OCCN3CCCCCC3)cc2)cc1`
14.5

Next entry: `CN1CCN(c2ccc(Nc3nc(NCCCNS(=O)(=O)c4ccc(F)cc4)c4sccc4n3)cc2)CC1`
82

Here is the next compound: `O=S(=O)(NCCCNc1nccc(-c2[nH]c(-c3ccccc3)nc2-c2ccc(F)c(O)c2)n1)c1cccc2ccccc12`
63.2

What about this compound? `NC(=O)c1c(NC(=O)c2ccc(C(F)(F)F)cc2)sc2c1CCC(=O)C2`
12.4

What do we get for `C#Cc1nc(C(=O)NCCCCCCC(=O)NO)cs1` ?
36.7

Follow-up item: `CN(C)S(=O)(=O)c1ccc(-c2nc(C(Cl)Cl)nc3cc(-c4ccccc4)nn23)cc1`
81.1

// same read-out, input: `C[C@H](Nc1ncnc2ccc(-c3cnc(Cl)c(NS(C)(=O)=O)c3)cc12)c1ccccc1`
13.4

Can you handle CC(Nc1ncnc2ccc(-c3cnc4cnccn34)cc12)c1ccccc1 (stereo unspecified) next?
51.9

The reported measurements were obtained from PubChem BioAssay (NCI).
